Measured self-aminoacylation, listed per entry.
Tested on: biotinyl-Phe-oxazolone
Assay: self-aminoacylation, catalytic enhancement (BFO) (fold over background); higher = more active; k-Seq, kA / k0A0; sequences stand for … in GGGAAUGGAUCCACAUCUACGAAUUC…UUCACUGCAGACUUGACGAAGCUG
Variants at the floor of the assay were thinned out.
Form: value (number only, do not type unit).

record-sequence: UUUACUCUGGUCAUCGAGUGA [Fam2.1 aminoacylation ribozyme variant]
self-aminoacylation: 7.42
//
record-sequence: CUACUCGAAACAAUCGGUCUG [Fam1A.1 aminoacylation ribozyme variant]
self-aminoacylation: 0.599
//
record-sequence: CUACUUCAAAGAAGCGGUCUG [Fam1A.1 aminoacylation ribozyme variant]
self-aminoacylation: 1.17
//
record-sequence: CAACACUUCAAGCAAUCUGUC [Fam1B.1 aminoacylation ribozyme variant]
self-aminoacylation: 0.588
//
record-sequence: CCGCACUUCACGCAAUCGGUC [Fam1B.1 aminoacylation ribozyme variant]
self-aminoacylation: 1.66

Challenge: Give me measured self-aminoacylation, please, for this sequence: ACGUUUGCUAAUAGUCGGAAG [Fam3.1 aminoacylation ribozyme variant]
Response given: 3.98

Challenge: Give me measured self-aminoacylation, please, for this sequence: AAGGUUGCUAAUAGUCGCAGG [Fam3.1 aminoacylation ribozyme variant]
Response given: 3.23

###

Test system: biotinyl-Trp-oxazolone
Experiment: self-aminoacylation, catalytic enhancement (BWO) (fold over background); higher = more active; k-Seq, kA / k0A0; sequences stand for … in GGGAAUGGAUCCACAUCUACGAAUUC…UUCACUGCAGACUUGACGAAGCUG
Variants at the floor of the assay were thinned out.
# label = Y if self-aminoacylation >= 6 else N

Example entries begin here.
record-sequence: AUUCACCUAGGUCACCGCGUG [Fam2.2 aminoacylation ribozyme variant]
group: Y
//
record-sequence: AAGUGUGCUAAUAGUCGCCAG [Fam3.1 aminoacylation ribozyme variant]
group: N
//
record-sequence: AUGUUUGCUAAAAGUCGCAAG [Fam3.1 aminoacylation ribozyme variant]
group: N
//
record-sequence: AUUCACUUAGGUCAUCGGGUG [Fam2.2 aminoacylation ribozyme variant]
group: Y

We now examine a further sequence.
Challenge: API: above_or_equal(metric=self-aminoacylation, cutoff=6) for item AGUACCCUGAUCAUCGAGUGA [Fam2.1 aminoacylation ribozyme variant]
Response given: Y

###

Measured self-aminoacylation, listed per entry.
Tested on: biotinyl-Ile-oxazolone
Assay: self-aminoacylation, catalytic enhancement (BIO) (fold over background); higher = more active; k-Seq, kA / k0A0; sequences stand for … in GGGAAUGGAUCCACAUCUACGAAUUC…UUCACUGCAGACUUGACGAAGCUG
Variants at the floor of the assay were thinned out.
Form: value (number only, do not type unit).

Below, 5 sequences whose answers are already recorded.
record-sequence: AUUUACCUAGGUCAUAGGGUG [Fam2.2 aminoacylation ribozyme variant]
observed-result: 1.37

record-sequence: AGUCACCUAGGUCACCGGGUG [Fam2.2 aminoacylation ribozyme variant]
observed-result: 4.07

record-sequence: UCUACCCUGGUCAUCGAGUGA [Fam2.1 aminoacylation ribozyme variant]
observed-result: 5.18

record-sequence: AUUAUCCUGGUCAACGAGUGA [Fam2.1 aminoacylation ribozyme variant]
observed-result: 3.69

record-sequence: CUAAUUCAAACAAUCGGGCUG [Fam1A.1 aminoacylation ribozyme variant]
observed-result: 0.805

Challenge: Give me measured self-aminoacylation, please, for this sequence: GCACACUUCUAGCAAUCGGUC [Fam1B.1 aminoacylation ribozyme variant]
Response given: 1.2

Challenge: Give me measured self-aminoacylation, please, for this sequence: UUACUUCAAACCAUCGGUCUG [Fam1A.1 aminoacylation ribozyme variant]
Response given: 1.09

Challenge: Give me measured self-aminoacylation, please, for this sequence: AAGUUUGCGAAGAGUCGCAAG [Fam3.1 aminoacylation ribozyme variant]
Response given: 1.36

Challenge: Give me measured self-aminoacylation, please, for this sequence: CCACUUCAAACAAUCGGUCCG [Fam1A.1 aminoacylation ribozyme variant]
Response given: 1.08
